Reference for the values: the supplement of paper PMC11061612

- System: ESS-1 (Other Solid Carcinomas)
- test: combination Emax (second highest fraction inhibited in the dose matrix, 72 h); higher = more inhibition; extreme values may be limits of the assay
metricName: combination Emax
Field format: numeric only.

Take a look at these entries with their results.
compound	metricName	measurement
Cc1cc2ncnn2cc1Nc1ncc2c(n1)n(C1CCOCC1)c(=O)n2C [AZD7648] + C[C@@H]1COCCN1C2=NC(=NC(=C2)C3(CC3)[S@](=N)(=O)C)C4=C5C=CNC5=NC=C4 [AZD6738] (first compound max 10 µM, 7x7, partner max 10 µM)	combination Emax	0.971
CS(=O)(=O)CCNCc1ccc(-c2ccc3ncnc(Nc4ccc(OCc5cccc(F)c5)c(Cl)c4)c3c2)o1 [Lapatinib] + C[C@@H](Oc1cc(-c2cnn(C3CCNCC3)c2)cnc1N)c1c(Cl)ccc(F)c1Cl [Crizotinib] (first compound max 10 µM, 7x7, partner max 10 µM)	combination Emax	0.917
NC1(C(=O)N[C@@H](CCO)c2ccc(Cl)cc2)CCN(c2ncnc3[nH]ccc23)CC1 [Capivasertib] + CC(=O)c1c(C)c2cnc(Nc3ccc(N4CCNCC4)cn3)nc2n(C2CCCC2)c1=O [Palbociclib] (first compound max 10 µM, 7x7, partner max 10 µM)	combination Emax	0.593

Let us move to another entry and its combination Emax.
Recorded result, CCc1c2c(nc3ccc(O)cc13)-c1cc3c(c(=O)n1C2)COC(=O)[C@]3(O)CC [SN-38] + O=C(c1cc(Cc2n[nH]c(=O)c3ccccc23)ccc1F)N1CCN(C(=O)C2CC2)CC1 [Olaparib] (first compound max 0.3 µM, 7x7, partner max 10 µM) , combination Emax: 1

* * *

- Tested on: OVCAR-5 (Ovarian Carcinoma)
- test: combination Emax (second highest fraction inhibited in the dose matrix, 72 h); higher = more inhibition; extreme values may be limits of the assay
metricName: combination Emax
Field format: numeric only.

Take a look at these entries with their results.
compound	combination Emax
C=CCn1c(=O)c2cnc(Nc3ccc(N4CCN(C)CC4)cc3)nc2n1-c1cccc(C(C)(C)O)n1 [AZD1775] + C1CN(CCC1(C(=O)N[C@@H](CCO)C2=CC=C(C=C2)Cl)N)C3=NC=NC4=C3C=CN4 [Capivasertib] (first compound max 3 µM, partner max 3 µM)	0.572
COc1cccc(OCCCN)c1-c1cc(Nc2cnc(C#N)cn2)n[nH]1 [Prexasertib] + C[C@@H]1COCCN1C2=NC(=NC(=C2)C3(CC3)[S@](=N)(=O)C)C4=C5C=CNC5=NC=C4 [AZD6738] (first compound max 1 µM, 7x7, partner max 10 µM)	0.817
C[C@@H]1COCCN1c1cc(C2([S@](C)(=N)=O)CC2)nc(-c2ccnc3[nH]ccc23)n1 [AZD6738] + Nc1ccn([C@@H]2O[C@H](CO)[C@@H](O)C2(F)F)c(=O)n1 [Gemcitabine] (first compound max 10 µM, 7x7, partner max 0.3 µM)	0.743
Cc1cc2ncnn2cc1Nc1ncc2c(n1)n(C1CCOCC1)c(=O)n2C [AZD7648] + COc1cc([C@@H]2c3cc4c(cc3[C@@H](O[C@@H]3O[C@@H]5CO[C@@H](C)O[C@H]5[C@H](O)[C@H]3O)[C@H]3COC(=O)[C@H]23)OCO4)cc(OC)c1O [Etoposide] (first compound max 10 µM, 7x7, partner max 10 µM)	0.546
COc1cccc(OCCCN)c1-c1cc(Nc2cnc(C#N)cn2)n[nH]1 [Prexasertib] + CCc1c2c(nc3ccc(O)cc13)-c1cc3c(c(=O)n1C2)COC(=O)[C@]3(O)CC [SN-38] (first compound max 1 µM, 7x7, partner max 0.3 µM)	0.89
NC1(C(=O)N[C@@H](CCO)c2ccc(Cl)cc2)CCN(c2ncnc3[nH]ccc23)CC1 [Capivasertib] + C[C@@H]1COCCN1C2=NC(=NC(=C2)C3(CC3)[S@](=N)(=O)C)C4=C5C=CNC5=NC=C4 [AZD6738] (first compound max 10 µM, 7x7, partner max 10 µM)	0.742
NC1(C(=O)N[C@@H](CCO)c2ccc(Cl)cc2)CCN(c2ncnc3[nH]ccc23)CC1 [Capivasertib] + COc1nnc2ccc(N3CCC(c4ccc(OCCN5CCN(C)C(=O)[C@H]5C)cc4)CC3)nn12 [AZD5153] (first compound max 10 µM, 7x7, partner max 1 µM)	0.624
CC1(C)CCC(CN2CCN(c3ccc(C(=O)NS(=O)(=O)c4ccc(NCC5CCOCC5)c([N+](=O)[O-])c4)c(Oc4cnc5[nH]ccc5c4)c3)CC2)=C(c2ccc(Cl)cc2)C1 [Venetoclax] + CN(C)CCCOc1ccc(-c2ccc3ncc4c(c3c2)n(C2CCOCC2)c(=O)n4C)cn1 [AZD0156] (first compound max 1 µM, 7x7, partner max 1 µM)	0.405

Let us move to another entry and its combination Emax.
Recorded result, CS(=O)(=O)CCNCc1ccc(-c2ccc3ncnc(Nc4ccc(OCc5cccc(F)c5)c(Cl)c4)c3c2)o1 [Lapatinib] + C[C@@H](Oc1cc(-c2cnn(C3CCNCC3)c2)cnc1N)c1c(Cl)ccc(F)c1Cl [Crizotinib] (first compound max 10 µM, 7x7, partner max 10 µM) , combination Emax: 0.834

* * *

- Tested on: MHH-CALL-2 (B-Lymphoblastic Leukemia)
- test: Bliss excess, mean over the matrix (fraction); higher = more synergy
Binary call on Bliss excess: true from 0.05 upward, false beneath that.

Reported Bliss excess reaches at least 0.05 for Cc1c2c(nn1C)CSCc1cc(n(C)n1)CSc1cc(c3ccccc3c1)OCCCc1c(C(=O)O)n(C)c3c-2c(Cl)ccc13 [AZD5991] + CC1(C)CCC(CN2CCN(c3ccc(C(=O)NS(=O)(=O)c4ccc(NCC5CCOCC5)c([N+](=O)[O-])c4)c(Oc4cnc5[nH]ccc5c4)c3)CC2)=C(c2ccc(Cl)cc2)C1 [Venetoclax] (first compound max 1 µM, 7x7, partner max 1 µM) ?
false

* * *

Bliss excess: recorded values
- Tested on: OVCAR-5 (Ovarian Carcinoma)
- test: Bliss excess, mean over the matrix (fraction); higher = more synergy

molecule	Bliss excess
Cc1c2c(nn1C)CSCc1cc(n(C)n1)CSc1cc(c3ccccc3c1)OCCCc1c(C(=O)O)n(C)c3c-2c(Cl)ccc13 [AZD5991] + Cn1cnc2c(F)c(Nc3ccc(Br)cc3Cl)c(C(=O)NOCCO)cc21 [Selumetinib] (first compound max 1 µM, 7x7, partner max 3 µM)	-0.0349
CC1(C)CCC(CN2CCN(c3ccc(C(=O)NS(=O)(=O)c4ccc(NCC5CCOCC5)c([N+](=O)[O-])c4)c(Oc4cnc5[nH]ccc5c4)c3)CC2)=C(c2ccc(Cl)cc2)C1 [Venetoclax] + COc1cc(Nc2ncc3c(n2)-c2ccc(Cl)cc2C(c2c(F)cccc2OC)=NC3)ccc1C(=O)O [Alisertib] (first compound max 1 µM, 7x7, partner max 10 µM)	-0.0703
Cc1cc2ncnn2cc1Nc1ncc2c(n1)n(C1CCOCC1)c(=O)n2C [AZD7648] + CCN(CCO)CCCOc1ccc2c(Nc3cc(CC(=O)Nc4cccc(F)c4)[nH]n3)ncnc2c1 [AZD2811] (first compound max 10 µM, 7x7, partner max 1 µM)	0.043
CN(CCO)CC[C@H](CSc1ccccc1)Nc1ccc(S(=O)(=O)NC(=O)c2ccc(N3CCC([C@@H](O)c4ccccc4-c4ccc(Cl)cc4)CC3)cc2)cc1S(=O)(=O)C(F)(F)F [AZD4320] + CC(=O)O[C@H]1C(=O)[C@@]2(C)[C@H]([C@H](OC(=O)c3ccccc3)[C@]3(O)C[C@H](OC(=O)[C@H](O)[C@@H](NC(=O)c4ccccc4)c4ccccc4)C(C)=C1C3(C)C)[C@]1(OC(C)=O)CO[C@@H]1C[C@@H]2O [Paclitaxel] (first compound max 1 µM, 7x7, partner max 3 µM)	0.0576
COc1nnc2ccc(N3CCC(c4ccc(OCCN5CCN(C)C(=O)[C@H]5C)cc4)CC3)nn12 [AZD5153] + CC1(C)CCC(CN2CCN(c3ccc(C(=O)NS(=O)(=O)c4ccc(NCC5CCOCC5)c([N+](=O)[O-])c4)c(Oc4cnc5[nH]ccc5c4)c3)CC2)=C(c2ccc(Cl)cc2)C1 [Venetoclax] (first compound max 1 µM, 7x7, partner max 1 µM)	-0.052

Recorded result, C[C@@H](c1ccc2nccn2c1)n1nnc2ncc(-c3cnn(C)c3)nc21 [Savolitinib] + CC1(C)CCC(CN2CCN(c3ccc(C(=O)NS(=O)(=O)c4ccc(NCC5CCOCC5)c([N+](=O)[O-])c4)c(Oc4cnc5[nH]ccc5c4)c3)CC2)=C(c2ccc(Cl)cc2)C1 [Venetoclax] (first compound max 1 µM, 7x7, partner max 1 µM) , Bliss excess: -0.0597

Recorded result, C=CCn1c(=O)c2cnc(Nc3ccc(N4CCN(C)CC4)cc3)nc2n1-c1cccc(C(C)(C)O)n1 [AZD1775] + O=C(c1cc(Cc2n[nH]c(=O)c3ccccc23)ccc1F)N1CCN(C(=O)C2CC2)CC1 [Olaparib] (first compound max 1 µM, partner max 10 µM) , Bliss excess: -0.041

Recorded result, NC1(C(=O)N[C@@H](CCO)c2ccc(Cl)cc2)CCN(c2ncnc3[nH]ccc23)CC1 [Capivasertib] + COc1nnc2ccc(N3CCC(c4ccc(OCCN5CCN(C)C(=O)[C@H]5C)cc4)CC3)nn12 [AZD5153] (first compound max 10 µM, 7x7, partner max 1 µM) , Bliss excess: 0.0138

Recorded result, Cc1c2c(nn1C)CSCc1cc(n(C)n1)CSc1cc(c3ccccc3c1)OCCCc1c(C(=O)O)n(C)c3c-2c(Cl)ccc13 [AZD5991] + CC(=O)O[C@H]1C(=O)[C@@]2(C)[C@H]([C@H](OC(=O)c3ccccc3)[C@]3(O)C[C@H](OC(=O)[C@H](O)[C@@H](NC(=O)c4ccccc4)c4ccccc4)C(C)=C1C3(C)C)[C@]1(OC(C)=O)CO[C@@H]1C[C@@H]2O [Paclitaxel] (first compound max 1 µM, 7x7, partner max 3 µM) , Bliss excess: -0.0389

Recorded result, NC1(C(=O)N[C@@H](CCO)c2ccc(Cl)cc2)CCN(c2ncnc3[nH]ccc23)CC1 [Capivasertib] + CCN(CCO)CCCOc1ccc2c(Nc3cc(CC(=O)Nc4cccc(F)c4)[nH]n3)ncnc2c1 [AZD2811] (first compound max 10 µM, 7x7, partner max 1 µM) , Bliss excess: -0.0223

Recorded result, CN(CCO)CC[C@H](CSc1ccccc1)Nc1ccc(S(=O)(=O)NC(=O)c2ccc(N3CCC([C@@H](O)c4ccccc4-c4ccc(Cl)cc4)CC3)cc2)cc1S(=O)(=O)C(F)(F)F [AZD4320] + C[C@@H]1COCCN1C2=NC(=NC(=C2)C3(CC3)[S@](=N)(=O)C)C4=C5C=CNC5=NC=C4 [AZD6738] (first compound max 1 µM, 7x7, partner max 10 µM) , Bliss excess: -0.0282

Recorded result, NC1(C(=O)N[C@@H](CCO)c2ccc(Cl)cc2)CCN(c2ncnc3[nH]ccc23)CC1 [Capivasertib] + CC(C)n1c(=O)n(C)c2cnc3cc(F)c(-c4ccc(OCCCN5CCCCC5)nc4)cc3c21 [AZD1390] (first compound max 10 µM, 7x7, partner max 0.3 µM) , Bliss excess: -0.0829
